Test system: SiaT9 (α-2,3-sialyltransferase)
test: In vitro sialyltransferase activity assay with acceptor substrates, product detected by thin layer chromatography
Type: biochemical, Vibrio sp. JT-FAJ-16
Parameters: key: +: A sialylated reaction product was detectable.; −: A sialylated reaction product was not detectable
run parameters: E. coli protein extract, 10 mM CMP-Neu5Ac, 5 to 20 mM acceptor substrate, 16 hours, TLC
property name: Formation of sialylated reaction product, SiaT9

compound	endpoint result
OC[C@H]1O[C@@H](O[C@H]2[C@H](O)[C@@H](O)C(O)O[C@@H]2CO)[C@H](O)[C@@H](O)[C@H]1O (stereo partly shown) [Lactose]	+
O=C[C@H](O)[C@@H](O)[C@@H](O)[C@H](O)CO [Galactose]	+
OC[C@H]1O[C@@](CO)(O[C@H]2O[C@H](CO)[C@@H](O)[C@H](O)[C@H]2O)[C@@H](O)[C@@H]1O [Sucrose]	−
CC(=O)N[C@H]1[C@H](O[C@H]2[C@@H](O)[C@@H](CO)O[C@@H](O[C@H]3[C@H](O)[C@@H](O)C(O)O[C@@H]3CO)[C@@H]2O)O[C@H](CO)[C@@H](O)[C@@H]1O[C@@H]1O[C@H](CO)[C@H](O)[C@H](O)[C@H]1O (stereo partly shown) [Lacto-N-tetraose]	+
